Hello, the source for this data is a melting point compilation (Tetko et al.; mined from patent text by program, amines drawn as free bases though some values may be those of a salt), in case you need it.

Kindly state melting point for each of the entries shown.

Ask: Any idea what its melting point is? The compound is "COc1cccc([C@H]2O[C@H](CC(=O)N[C@@H](CCSC)C(=O)O)C(=O)N(CC(C)(C)CO)c3ccc(Cl)cc32)c1OC"
Reply: 129 to 130 °C

Ask: Any idea what its melting point is? The compound is N#CC(O)C(Cc1ccccc1)N1C(=O)c2ccccc2C1=O (centres undefined)
Reply: 128 to 132 °C

Ask: Any idea what its melting point is? The compound is "COC(=O)c1ccccc1NC(=O)c1ccc(OC)cc1"
Reply: 122 to 124 °C

Ask: Any idea what its melting point is? The compound is "CCCCCCCCCCCCCCCCOc1cc(NS(=O)(=O)c2cc([N+](=O)[O-])ccc2N2CCOCC2)c(OC(C)=O)cc1C"
Reply: 95 to 96 °C

Ask: Any idea what its melting point is? The compound is OC1CSC(Oc2ccc(-c3ccoc3)cc2F)C(O)C1O (centres undefined)
Reply: 155 °C

Ask: Any idea what its melting point is? The compound is "Cc1oc(-c2ccccc2)nc1COc1ccc(CSc2nc(CCC(=O)O)n[nH]2)cc1"
Reply: 170 to 171 °C

Ask: Any idea what its melting point is? The compound is "CC(C)(C)OC(=O)N1CCN(C[C@H](O)Cn2c3ccccc3c3cc(Br)ccc32)CC1"
Reply: 75 to 85 °C

Ask: Any idea what its melting point is? The compound is "CCCCCCCCCCNS(=O)(=O)c1ccc(OC)cc1"
Reply: 53 to 54.5 °C

Ask: Any idea what its melting point is? The compound is O=C(c1cc2cc([N+](=O)[O-])ccc2[nH]1)N1CC(CCl)c2c1cc([N+](=O)[O-])c1ccccc21 (centres undefined)
Reply: > 300 °C

----------
Property: melting point

Ask: Any idea what its melting point is? The compound is "O=C(O)CC1(CCl)OCCO1"
Reply: 64 to 65 °C

Ask: Any idea what its melting point is? The compound is "CC(C)(S)[C@@H](NC(=O)c1ccc(Br)cc1)C(=O)O"
Reply: 176 °C

Ask: Any idea what its melting point is? The compound is "CC(C)Oc1cccc(Nc2cc(-c3c[nH]nc3-c3ccccn3)ccn2)c1"
Reply: 218 °C

Ask: Any idea what its melting point is? The compound is CCCCOCCOc1ccc(-c2ccc3c(c2)C=C(C(=O)Nc2ccc(S(=O)Cc4cncn4CCC)cc2)CCCN3CC(C)C)cc1 (single isomer, unassigned; (-))
Reply: 120 to 122 °C

Ask: Any idea what its melting point is? The compound is "CCn1ncc2c1ncc1c(Cl)nc3cc(C)nn3c12"
Reply: 179 to 180 °C

Ask: Any idea what its melting point is? The compound is "COc1ccnc(CCc2nc3cc(-c4ccc(NS(=O)(=O)c5ccccc5)cc4)cnc3[nH]2)c1"
Reply: 251 to 253 °C

Ask: Any idea what its melting point is? The compound is "O=c1[nH]c2cc(Br)c3c(c2[nH]c1=O)CN(CCCc1ccccc1)CC3"
Reply: 288 to 293 °C

Ask: Any idea what its melting point is? The compound is "CCOC(=O)C1CCN(C(N)=S)CC1"
Reply: 97 to 98 °C

Ask: Any idea what its melting point is? The compound is "CCCCCCCCCCCCCCCCOc1cc(OC)c(N)cc1OC"
Reply: 61 °C

Ask: Any idea what its melting point is? The compound is CC(O)(c1cccnc1)C1CCN(C[C@@]23C[C@@H](c4ccccc42)c2ccc(Cl)cc23)CC1 (single isomer, unassigned)
Reply: 87 to 93 °C

Ask: Any idea what its melting point is? The compound is "CC(=O)Oc1cccc(C(=O)N[C@@H](Cc2ccccc2)[C@H](O)C(=O)O)c1C"
Reply: 189 to 191 °C

Ask: Any idea what its melting point is? The compound is "CCCCOc1c(CO)n(CC2CC2)c(=O)c2ccc(OCc3ccccc3)cc12"
Reply: 96 to 97 °C

Ask: Any idea what its melting point is? The compound is "COC(=O)c1cc(OC(C)=O)c2cc(-c3ccc4c(c3)C(C)(C)CCC4(C)C)ccc2c1C"
Reply: 170 °C

Ask: Any idea what its melting point is? The compound is "COC(=O)C1c2ccccc2Oc2ccccc21"
Reply: 82 °C

Ask: Any idea what its melting point is? The compound is "Cc1cc(Sc2ccc3nc(CCl)n(C)c3n2)cc(C)c1[N+](=O)[O-]"
Reply: 133 to 135 °C

Ask: Any idea what its melting point is? The compound is "CCCCCCCCCCCCCCC(=O)CCl"
Reply: 52.5 to 53.5 °C

Ask: Any idea what its melting point is? The compound is "CCOP(=O)(OCC)C(Nc1nccs1)P(=O)(OCC)OCC"
Reply: 103 to 104 °C

Ask: Any idea what its melting point is? The compound is "COc1cc2ncnc(N3CCCc4ccccc43)c2cc1OC"
Reply: 130 to 131 °C

Ask: Any idea what its melting point is? The compound is "NC(=S)CN1CCCC1=S"
Reply: 154 to 156 °C

Ask: Any idea what its melting point is? The compound is "O=C(O)/C=C/c1ccc(OCCN2CCOCC2)cc1"
Reply: 228 °C

Ask: Any idea what its melting point is? The compound is "Cc1c(-c2cccnc2)n(CCCCCCCC(=O)O)c2ccccc12"
Reply: 110 to 113 °C

Ask: Any idea what its melting point is? The compound is "CCCCCCNC(=S)NC(=O)c1ccc(C#N)cc1"
Reply: 95 to 96 °C

Ask: Any idea what its melting point is? The compound is "CCOC(=O)CN1C(=O)[C@@H](N)[C@H](c2ccccc2)Sc2ccccc21"
Reply: 176 to 178 °C

Ask: Any idea what its melting point is? The compound is "CN(C)S(=O)(=O)c1cccc(NC(=O)c2cnn3c(C(F)F)cc(-c4ccc(C(F)(F)F)cc4)nc23)c1"
Reply: 197 °C

Ask: Any idea what its melting point is? The compound is CN(C(=O)c1ccc([N+](=O)[O-])cc1)C1N(C)C(c2ccc(F)cc2)=NC1(C(F)(F)F)C(F)(F)F (stereo not given)
Reply: 174 to 175 °C

Ask: Any idea what its melting point is? The compound is "CNn1c(SC)nnc(-c2ccccc2)c1=O"
Reply: 119 to 120 °C

Ask: Any idea what its melting point is? The compound is "O=c1[nH]c2ccc(-c3cc(CN4CCC(Cc5ccc(F)cc5)CC4)on3)cc2o1"
Reply: 237 to 244 °C

Ask: Any idea what its melting point is? The compound is "CCC(=O)N[C@@H](CC)c1nc2c(C(F)(F)F)cccc2c(O)c1C(=O)Nc1nccs1"
Reply: > 275 °C

Ask: Any idea what its melting point is? The compound is "CCn1cc(C(=O)Nc2cc(Oc3ccc4nc(NC(=O)C5CC5)cn4n3)ccc2F)c(C)n1"
Reply: 199 °C

Ask: Any idea what its melting point is? The compound is "OCc1cccc(Oc2nn(Cc3ccccc3)c3ccccc23)n1"
Reply: 156 to 158 °C

Ask: Any idea what its melting point is? The compound is CC(=O)NCC1CC1c1c(C)ccc2nn(C)cc12 (stereo not given)
Reply: 139 to 140 °C

Ask: Any idea what its melting point is? The compound is CN(CCC(Oc1ccc(C(=O)c2ccc3ccccc3c2)cc1)c1ccccc1)CC(=O)O (stereo not given)
Reply: 77 to 89 °C

Ask: Any idea what its melting point is? The compound is "CC(C)C(=O)C[C@@H](O)C(=O)O"
Reply: 67 to 68 °C

Ask: Any idea what its melting point is? The compound is "Cc1ccc(-c2[nH]c(-c3ccc4ccccc4c3)nc2C(=O)Nc2nccs2)cc1"
Reply: > 250 °C

Ask: Any idea what its melting point is? The compound is "COc1ccc(COC(=O)c2nc(-c3ccc(Cl)c(OC)c3F)cc(N)c2Cl)cc1"
Reply: 73 to 83 °C

Ask: Any idea what its melting point is? The compound is "O=C(c1ccccn1)c1csc(-c2ccccc2)n1"
Reply: 95 to 97 °C

Ask: Any idea what its melting point is? The compound is "CN(C)C(=N)c1c(Cl)cc(N=Cc2ccc(N(C)C)cc2F)cc1Cl"
Reply: 127 to 128 °C

Ask: Any idea what its melting point is? The compound is "CCc1nc2c(OCc3ccccc3)cc(C(=O)N(C)C)cc2n1C"
Reply: 104 to 108 °C

Ask: Any idea what its melting point is? The compound is "CCCCN1CCC(O)(c2cccn2Cc2ccccc2F)CC1"
Reply: 132 to 135 °C

Ask: Any idea what its melting point is? The compound is "CC(C)(C)c1cn(Cc2ccccc2)c([C@@H](Cc2c[nH]c3ccccc23)NCc2ccccc2)n1"
Reply: 60 to 62 °C
